target.or.test.system: AChE (from Electrophorus electricus) (Electrophorus electricus, UniProt O42275)
Sequence (O42275 24-633): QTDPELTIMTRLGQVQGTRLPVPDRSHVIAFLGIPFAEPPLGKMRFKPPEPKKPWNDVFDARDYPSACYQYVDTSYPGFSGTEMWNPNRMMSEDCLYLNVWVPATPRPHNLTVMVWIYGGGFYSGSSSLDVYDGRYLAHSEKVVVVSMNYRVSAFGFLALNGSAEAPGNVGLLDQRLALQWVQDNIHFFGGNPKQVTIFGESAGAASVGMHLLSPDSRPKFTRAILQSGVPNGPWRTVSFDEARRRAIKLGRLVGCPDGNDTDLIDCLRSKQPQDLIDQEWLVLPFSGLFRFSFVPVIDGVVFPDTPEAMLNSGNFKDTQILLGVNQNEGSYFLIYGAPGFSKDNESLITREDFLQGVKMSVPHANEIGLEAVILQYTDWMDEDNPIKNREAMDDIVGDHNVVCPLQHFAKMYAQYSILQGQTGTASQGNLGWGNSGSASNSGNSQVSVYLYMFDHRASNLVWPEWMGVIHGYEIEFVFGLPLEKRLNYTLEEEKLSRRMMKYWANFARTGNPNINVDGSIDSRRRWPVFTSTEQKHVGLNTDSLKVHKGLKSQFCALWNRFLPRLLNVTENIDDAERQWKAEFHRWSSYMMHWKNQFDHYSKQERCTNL
attribute.measured: IC50 (µM)
Only the number, expressed in µM, is required.

-- ask Bench note: what IC50 did COc1cc2c(cc1O)CC[n+]1cc3c(OC)c(OC)ccc3cc1-2 show?
-- reply 12.3

-- ask Bench note: what IC50 did COc1ccc2c(c1OC)CC1c3c(cc4c(c3-2)OCO4)CCN1C (stereo not drawn) show?
-- reply 17.4

-- ask Bench note: what IC50 did COc1cc2c(cc1OC)-c1c3c(cc4ccnc(c14)C2=O)OCO3 show?
-- reply 266

-- ask Bench note: what IC50 did CN1CCc2cc3c(c4c2C1Cc1ccccc1-4)OCO3 (stereo not drawn) show?
-- reply 8.32

-- ask Bench note: what IC50 did COc1cc2c(cc1O)C(Cc1ccc(O)cc1)NCC2 (stereo not drawn) show?
-- reply 40.9

-- ask Bench note: what IC50 did COC1=C[C@]23CCN(C)[C@H](Cc4ccc(OC)c(O)c42)C3=CC1=O show?
-- reply 7.49

----------
Can you tell me pIC50 for the items I'm about to list?
target.or.test.system: BuChE (from equine serum) (Equus caballus)
Sequence (P81908 whole entry): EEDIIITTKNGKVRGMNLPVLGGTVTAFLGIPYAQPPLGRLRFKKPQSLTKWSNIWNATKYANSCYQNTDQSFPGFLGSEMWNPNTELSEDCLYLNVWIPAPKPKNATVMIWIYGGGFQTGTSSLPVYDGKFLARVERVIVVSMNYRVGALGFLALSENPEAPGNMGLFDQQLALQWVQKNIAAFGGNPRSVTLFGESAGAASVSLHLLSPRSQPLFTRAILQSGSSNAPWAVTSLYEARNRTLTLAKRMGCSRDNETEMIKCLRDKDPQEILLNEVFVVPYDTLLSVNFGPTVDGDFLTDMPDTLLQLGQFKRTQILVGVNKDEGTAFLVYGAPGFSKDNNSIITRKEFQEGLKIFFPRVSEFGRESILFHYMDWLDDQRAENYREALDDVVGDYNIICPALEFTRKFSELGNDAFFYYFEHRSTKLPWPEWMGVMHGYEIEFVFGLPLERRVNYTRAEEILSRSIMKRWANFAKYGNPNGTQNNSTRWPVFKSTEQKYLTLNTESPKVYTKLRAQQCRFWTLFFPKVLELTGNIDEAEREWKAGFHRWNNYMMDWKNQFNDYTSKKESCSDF
experimental.protocol: BuChE inhibitory activity, Ellman's method with slight modification
Reminder that pIC50 is minus the log10 of a molar concentration.

-- ask Bench note: what pIC50 did CN1CCc2cc3c(c4c2C1Cc1ccccc1-4)OCO3 (stereo not drawn) show?
-- reply 5.55

-- ask Bench note: what pIC50 did COc1ccc2c(c1OC)CC1c3c(cc4c(c3-2)OCO4)CCN1C (stereo not drawn) show?
-- reply 4.98

-- ask Bench note: what pIC50 did COc1cc2c(cc1O)[C@@H]1Cc3ccc(O)c(OC)c3CN1CC2 show?
-- reply 3.66

-- ask Bench note: what pIC50 did COc1cc2c(cc1O)C(Cc1ccc(O)cc1)NCC2 (stereo not drawn) show?
-- reply 4.69

-- ask Bench note: what pIC50 did COc1cc2c(cc1O)CC[n+]1cc3c(OC)c(OC)ccc3cc1-2 show?
-- reply 4.50

-- ask Bench note: what pIC50 did COc1cc2c(cc1OC)[C@@H]1Cc3ccc(OC)c(OC)c3CN1CC2 [Compound 14, tetrahydropalmatine] show?
-- reply 4.18
